# maps each entry to its Tonset ø (mean)
# Method Summary: Thermostability (Tm, Tonset, Tagg) by Nanotemper DSF
# Format: physicochemical
# Parameters: key: temperatures in °C
# Run Parameters: Average of two replicates; anti-Fel d1 VHH

Molecule	Tonset ø (mean)
SDAB22110-4-3-H02: anti-Fel d1 VHH clone, SEQ ID NO: 57 (protein) VHH: QLQLVESGGGLVQPGGSLRLSCEASGFTFKYYTMSWYRQAPGKERELVATITNGDRTNYADSVKGRFTISRDNAKNTLYLQMNSLKPYDTAVYYCNRHLPLLQIWGQGTQVTVSS	47.54
SDAB22110-4-3-G08: anti-Fel d1 VHH clone, SEQ ID NO: 56 (protein) VHH: DVQLVESGGGLVQPGGSLRLSCAASGFTFSLYYMSWYRQVPGKERELVATITSGTHATTYADSVKGRFTISRDNAKNTVSLQMNSLKREDTGVYYCKRTNAGQDPWGQGTQVTVSS	27.92
SDAB22110-1-1-E4: anti-Fel d1 VHH clone, SEQ ID NO: 51 (protein) VHH: QLQLVESGGGLVQPGGSLRLSCTASGFTFSTAGTSWYRQSPGKARKLVAELSRIGGIANYADSVKGRFTISRDNTRNTVYLQMNSLKPEDTAVYYCKVVTNRNYGFTYWGQGTQVTVSS	40.64
